System: SN12C renal
Assay: NCI tumour cell line growth inhibition, 48 h; in the data active means GI50 below about 0.43 µM; inactive means the rest
Response enum: 1 (yes) for active, 0 (no) for inactive

Here are 5 molecules together with their reported answers.
{"columns": ["structure_string", "target_entity", "discrete_label"],
 "data": [
  ["[Cl-].[Nd+3].[O-]/N=C(\\c1ccccc1)c1ccccn1.[O-]/N=C(\\c1ccccc1)c1ccccn1.[O-]/N=C(\\c1ccccc1)c1ccccn1", "SN12C renal", "0 (no)"],
  ["Cc1ccc(Cl)cc1-c1nc(N)nc(Nc2ccc(Br)cc2)n1", "SN12C renal", "1 (yes)"],
  ["C=C1C(=O)O[C@H]2[C@H]1CC/C(COC(=O)CCCC(=O)OC/C1=C/CC[C@@]3(C)O[C@H]3[C@H]3OC(=O)C(=C)[C@@H]3CC1)=C\\CC[C@@]1(C)O[C@@H]21", "SN12C renal", "0 (no)"],
  ["O=C(CCCCN1CCOCC1)Nc1ccc(Cn2nnc3c2C(=O)c2nnn(Cc4ccc(NC(=O)CCCCN5CCOCC5)cc4)c2C3=O)cc1", "SN12C renal", "1 (yes)"],
  ["O=C(N/N=C/c1c(Cl)cccc1Cl)c1cccnc1Nc1cccc(C(F)(F)F)c1", "SN12C renal", "0 (no)"]
]}

Lab note: next molecule to report on.
[ask] I'd appreciate the recorded outcome for "COc1ccc(N2CCN(C(=O)c3ccc(C(F)(F)F)nc3Nc3cc(Cl)ccc3C)CC2)cc1" from this test.
[reply] 0 (no)
